- assay-procedure: folding stability dG unfold (combined trypsin and chymotrypsin); higher = more stable
Listing: folding stability dG unfold of selected sequences
measured-property: folding stability dG unfold (kcal/mol)

[
  {
    "polymer-sequence": "SAGGLKPGDWVIIMTIEFPFPFPDDDGKPQEWRIKITIWVPVEYDPPDGKLEIDNIFINIEIVPPDQISAGG [r13_312_TrROS]",
    "measured-property": "folding stability dG unfold",
    "unit-abbreviation": "kcal/mol",
    "modifier": "=",
    "measured": 4.44
  },
  {
    "polymer-sequence": "SAGGPKWYYITIKIPDDPKKAERLVDRLQDLFGEDVRINVNPGNNHVTVWIPNDLRPLLKDHGLEITPSAGG [r13_156_TrROS]",
    "measured-property": "folding stability dG unfold",
    "unit-abbreviation": "kcal/mol",
    "modifier": "=",
    "measured": 2.93
  },
  {
    "polymer-sequence": "SAGGSAGGLEIAKELGFEKIEIEEVKENRVVLKLKDKNGKEYKIEFEFDPETGEIKILKIEPLPSAGGSAGG [r6_526_TrMRF]",
    "measured-property": "folding stability dG unfold",
    "unit-abbreviation": "kcal/mol",
    "modifier": "=",
    "measured": 4.12
  },
  {
    "polymer-sequence": "SMYTTVTVEVDITLADKTPDGTWTPVGTFPIKVTVTVPESRPEEAREEALARARAEVEAFAASRGLTVVVSA [r9_356_JUSTAS]",
    "measured-property": "folding stability dG unfold",
    "unit-abbreviation": "kcal/mol",
    "modifier": "=",
    "measured": 2.07
  },
  {
    "polymer-sequence": "SAGMVITISSDLSPEEVLATAQALAAELGAKKVEVERDPANPDVVTVTVEFPGLGKTVTVNVLPPELLESAG [r5_912_JUSTAS]",
    "measured-property": "folding stability dG unfold",
    "unit-abbreviation": "kcal/mol",
    "modifier": "=",
    "measured": 1.57
  },
  {
    "polymer-sequence": "SAGGSAGGSAGMKVEIEVYELPGGERPVKITVTYENKPKEYEKEAETEEEAEEFAKELLESAGGSAGGSAGG [r11_560_JUSTAS]",
    "measured-property": "folding stability dG unfold",
    "unit-abbreviation": "kcal/mol",
    "modifier": "=",
    "measured": -0.0487
  },
  {
    "polymer-sequence": "SAGGPVVLKIEIEQKTDGKPQERELVIPVKWDPNGQVDADEIKDWVEEALPPGYKIEDIDVVPPGQPFSAGG [r13_504_TrROS]",
    "measured-property": "folding stability dG unfold",
    "unit-abbreviation": "kcal/mol",
    "modifier": "<",
    "measured": -1
  },
  {
    "polymer-sequence": "SAGGSAGGSAGGSGMVNLPEPIKVTKEEPLPDGSVRYTIEYPDSTITVFKYPDGIKIESSAGGSAGGSAGGS [r4_280_JUSTAS]",
    "measured-property": "folding stability dG unfold",
    "unit-abbreviation": "kcal/mol",
    "modifier": "=",
    "measured": 0.393
  },
  {
    "polymer-sequence": "SAGGMPVVTPTTSTEPLPGGRAATVTTYTPPDGLVRQEVTLPPERRLFRLIDPATGEVVEKEEAELESAGGS [r16_735_JUSTAS]",
    "measured-property": "folding stability dG unfold",
    "unit-abbreviation": "kcal/mol",
    "modifier": "<",
    "measured": -1
  },
  {
    "polymer-sequence": "SAGGSAKPKIKINIFYPKDGQWYVMIQDPGGEEVMGPWDDIDKIIEAGIPADDVEIEWMPMPPGQFSAGGSA [r15_955_TrROS]",
    "measured-property": "folding stability dG unfold",
    "unit-abbreviation": "kcal/mol",
    "modifier": "=",
    "measured": 1.09
  },
  {
    "polymer-sequence": "SAGGSAGGSAGGSPVIIPDKGYLVVELEEEGLLVVYPLYPDGEIGPAFVRPVHPDVPVLSAGGSAGGSAGGS [r4_409_TrMRF]",
    "measured-property": "folding stability dG unfold",
    "unit-abbreviation": "kcal/mol",
    "modifier": "=",
    "measured": 1.92
  },
  {
    "polymer-sequence": "SAGGSAGGMPAEWLDEIEAPPGNYRAELYKTEKEVRIIITLPNGEKLELTFEVKPDEEILVLPGSAGGSAGG [r6_379_TrMRF]",
    "measured-property": "folding stability dG unfold",
    "unit-abbreviation": "kcal/mol",
    "modifier": "=",
    "measured": 2.05
  },
  {
    "polymer-sequence": "SAGGSAGGSAGGLRAKIVEIKEVKVKKLYKDPETNEWYEEEKTVKVIKIKIEPAKPGEKISAGGSAGGSAGG [r17_530_TrROS_Hall]",
    "measured-property": "folding stability dG unfold",
    "unit-abbreviation": "kcal/mol",
    "modifier": "=",
    "measured": 0.947
  },
  {
    "polymer-sequence": "SAGGSAGGSAGGGDFEKVKVRFRYVNPDGGPERDIEIEVEARKEDIPRLLKELKDAGLIESAGGSAGGSAGG [r7_618_TrMRF]",
    "measured-property": "folding stability dG unfold",
    "unit-abbreviation": "kcal/mol",
    "modifier": "=",
    "measured": 1.23
  },
  {
    "polymer-sequence": "SAGGSMVKEIEIPVPEDWTPEDAVEAAREYLEANPELENVIVRFTLPDGTPLVVEIKPGGKIVKVTPESAGG [r13_690_JUSTAS]",
    "measured-property": "folding stability dG unfold",
    "unit-abbreviation": "kcal/mol",
    "modifier": "=",
    "measured": 2.83
  },
  {
    "polymer-sequence": "SAGGSAGGSAGGPKVIEITNKDGSTFRLVEVDGELYLYNEKTGKVVKLPPGAKITIKKPSAGGSAGGSAGGS [r10_637_TrROS_Hall]",
    "measured-property": "folding stability dG unfold",
    "unit-abbreviation": "kcal/mol",
    "modifier": "=",
    "measured": 2.34
  },
  {
    "polymer-sequence": "SAGGMGQEELENLPPEVVAGLLAEEALAEAERLGRPNEAVTVEVELGDVPLRIELTADGKIARIEAGSAGGS [r16_431_TrMRF]",
    "measured-property": "folding stability dG unfold",
    "unit-abbreviation": "kcal/mol",
    "modifier": "<",
    "measured": -1
  },
  {
    "polymer-sequence": "SAGGSAGGSAGNMEPVPTFELPHDDGRPFTIEVYKDPPMIRVEFPGKPRTMPAEEIKKLISAGGSAGGSAGG [r11_370_TrROS]",
    "measured-property": "folding stability dG unfold",
    "unit-abbreviation": "kcal/mol",
    "modifier": "<",
    "measured": -1
  },
  {
    "polymer-sequence": "SAGGKYGYKIEIEIAIFRIPPGAEVEPERIGNIEIYRIRFPDGNWLIMIRIKVKPMPPPPPEKKDNDDSAGG [r13_804_TrROS]",
    "measured-property": "folding stability dG unfold",
    "unit-abbreviation": "kcal/mol",
    "modifier": "=",
    "measured": 4.22
  },
  {
    "polymer-sequence": "SALSASELAKRVRDRIKELSNEEGYNVDIKVDVQPNEDGSVTVHIQFDSPWMIKRIKEKLPPGVNVEIMSAG [r14_491_TrROS]",
    "measured-property": "folding stability dG unfold",
    "unit-abbreviation": "kcal/mol",
    "modifier": "=",
    "measured": 2.75
  },
  {
    "polymer-sequence": "SAGGMVDIYFPDAVIDDSGTKEDILEQLEKVTGKPIPEELREEILKGKTVEEIVELLKKRGFDVRVDSAGGS [r16_601_TrMRF]",
    "measured-property": "folding stability dG unfold",
    "unit-abbreviation": "kcal/mol",
    "modifier": "=",
    "measured": 3.13
  },
  {
    "polymer-sequence": "SAGGSAGGSGSMTTTTDPNSDITVSSIGSPSGPPVTATLNPKTGTVTVTVGGTPVTIPLDALSSAGGSAGGS [r12_650_JUSTAS]",
    "measured-property": "folding stability dG unfold",
    "unit-abbreviation": "kcal/mol",
    "modifier": "=",
    "measured": 0.987
  },
  {
    "polymer-sequence": "SAGGSAGGSAGGATFKPGETVRVEVEVELRVFKVDEETGEIVEETETVTVRVEVEVRLESAGGSAGGSAGGS [r10_122_TrROS_Hall]",
    "measured-property": "folding stability dG unfold",
    "unit-abbreviation": "kcal/mol",
    "modifier": "=",
    "measured": 2.04
  },
  {
    "polymer-sequence": "SSMSTPSSSTLTVELPDREVTASATTTTLPDGTTTTTTTFPDGSTITYDPATGTTTIYDPATGAPLATTGSA [r9_970_JUSTAS]",
    "measured-property": "folding stability dG unfold",
    "unit-abbreviation": "kcal/mol",
    "modifier": "=",
    "measured": 0.344
  },
  {
    "polymer-sequence": "SAGGSDEHEYKGTGRDPDNGQTREETYRVEPVVPPIPISISVSLNLDIDPNGNLNWDFNISIGIGISAGGSA [r2_326_TrROS]",
    "measured-property": "folding stability dG unfold",
    "unit-abbreviation": "kcal/mol",
    "modifier": "=",
    "measured": 3.33
  },
  {
    "polymer-sequence": "SAGGSAGGSSQEREFTLPDPDGKDIKITMHQNPDGRPRAEIENKDGEPVKEFDSPDDIEDLLKSAGGSAGGS [r20_202_TrROS]",
    "measured-property": "folding stability dG unfold",
    "unit-abbreviation": "kcal/mol",
    "modifier": "=",
    "measured": -0.0562
  },
  {
    "polymer-sequence": "DIDIETHPNGTILIKVPRNLLDEIKDILKENGYNVKITGIDPDWGYIRFPLKPVPPPPPKPSPEDAEEQGDS [r1_78_TrROS]",
    "measured-property": "folding stability dG unfold",
    "unit-abbreviation": "kcal/mol",
    "modifier": "=",
    "measured": 1.89
  }
]
